# System: Fer (mouse)
# Protocol text: phosphorylation enrichment, bacterial display (enrichment ratio); higher = better substrate or ligand; peptides without Tyr show the background
phosphorylation enrichment of 0.6 or higher: fulfilled. Under 0.6: not fulfilled.

Here are 7 sequences together with their reported answers.
>>> print(df.to_string())
                   sequence_entry  discrete_label
0   CPFNLYAAQLS [HGD_Y40_E42A_YF]       fulfilled
1   ASPKSYPSQKH [CAP2_Y316_T311A]   not fulfilled
2        DVELLYPVKEK [EPHX1_Y283]   not fulfilled
3  KIPGRYFETGS [PAX2_Y72_L69P_YF]   not fulfilled
4     EFKKHYGFSLF [ANXA3_Y295_YF]   not fulfilled
5  DGQVNYEELVQ [CALM1_Y139_F142L]       fulfilled
6   RVLQLYGCSPS [ASTL_Y279_K277Q]       fulfilled

Now examine the next entry.
Form field: phosphorylation enrichment at least 0.6? Entry: PPEFSYGLQTQ [SRA1_Y35_Q32E] not fulfilled

###

# Tested system: MERTK (UniProt Q12866)
# Sequence (Q12866 whole entry, looked up): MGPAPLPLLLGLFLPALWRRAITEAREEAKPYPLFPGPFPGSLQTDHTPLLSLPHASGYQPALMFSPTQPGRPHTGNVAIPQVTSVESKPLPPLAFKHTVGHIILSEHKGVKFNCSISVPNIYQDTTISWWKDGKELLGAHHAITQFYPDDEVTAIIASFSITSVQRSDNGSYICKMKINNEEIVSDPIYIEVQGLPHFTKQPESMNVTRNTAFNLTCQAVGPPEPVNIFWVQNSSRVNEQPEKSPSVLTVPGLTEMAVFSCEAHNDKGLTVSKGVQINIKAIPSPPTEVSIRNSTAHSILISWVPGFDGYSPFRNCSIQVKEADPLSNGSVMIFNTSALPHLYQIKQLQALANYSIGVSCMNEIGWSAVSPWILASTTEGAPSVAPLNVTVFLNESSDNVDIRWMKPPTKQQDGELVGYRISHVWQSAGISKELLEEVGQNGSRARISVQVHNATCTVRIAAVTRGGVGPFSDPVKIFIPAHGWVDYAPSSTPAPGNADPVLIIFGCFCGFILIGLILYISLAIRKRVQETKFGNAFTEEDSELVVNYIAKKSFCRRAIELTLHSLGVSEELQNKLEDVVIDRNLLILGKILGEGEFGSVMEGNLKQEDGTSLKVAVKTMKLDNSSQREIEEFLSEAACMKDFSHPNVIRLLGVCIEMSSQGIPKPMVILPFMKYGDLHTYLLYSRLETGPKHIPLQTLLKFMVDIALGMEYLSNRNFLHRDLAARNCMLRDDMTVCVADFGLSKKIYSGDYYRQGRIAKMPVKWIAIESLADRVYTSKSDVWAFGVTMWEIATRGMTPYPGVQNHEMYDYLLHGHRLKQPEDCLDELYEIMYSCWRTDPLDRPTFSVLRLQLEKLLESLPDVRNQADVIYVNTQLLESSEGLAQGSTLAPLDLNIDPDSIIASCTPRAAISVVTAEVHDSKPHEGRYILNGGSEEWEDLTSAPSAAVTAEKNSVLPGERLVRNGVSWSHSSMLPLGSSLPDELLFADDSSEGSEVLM
# Protocol text: phosphorylation enrichment, bacterial display (enrichment ratio); higher = better substrate or ligand; peptides without Tyr show the background
phosphorylation enrichment values, listed per item
// print number alone

These recorded examples may help you get a feel for the data.
                   sequence_entry  measured
0      KDKLPYPFDDP [GPX2_Y125_YF]     0.512
1  LARDMDDKEYY [MET_Y1230_Y1230D]     0.489

Reported phosphorylation enrichment for KKLEVYQSIAD [MYBPC3_Y548] : what is it? 0.488

###

# System: c-Abl (mouse)
# Protocol text: phosphorylation enrichment, bacterial display (enrichment ratio); higher = better substrate or ligand; peptides without Tyr show the background
Attribute measured: phosphorylation enrichment
Output spec: single numeric token, no unit.

// worked examples, phosphorylation enrichment included
>>> df
                   sequence_entry  measured
0         ENRKYYMDLKE [PURA_Y156]     0.588
1     IPGRYYETGSI [PAX2_Y73_L69P]     0.616
2  ILGTFYETGSI [PAX2_Y73_R71T_YF]     0.587

Alright, here's another sequence for you.
Recorded phosphorylation enrichment for FSCLPCGRLAY [SLC52A2_Y305_Y305C] with c-Abl (mouse), please? 0.584

###

SH2 binding enrichment reference
# Tested system: c-Src SH2
# Protocol text: SH2 binding enrichment of the phosphorylated peptide, bacterial display (enrichment ratio); higher = better substrate or ligand; peptides without Tyr show the background
Please give only the number in your answer, with no unit.

Answered cases to consult:
>>> df
                   sequence_entry  measured
0   EVESPYEVHDF [GIGYF2_Y1168_YF]     0.486
1  LITTPYIGFLG [KCNQ1_Y267_L266P]     0.492
2  THQKSYQPGRK [CEFIP_Y210_N208K]     0.514
3    AFDNLYFWDQD [ERBB2_Y1221_YF]     0.495
4       RPQDGYRIVQH [PTPRT_Y1329]     0.508

Next, consider the following sequence.
Endpoint output: SH2 binding enrichment of GIVKAYFVRAR [AIPL1_Y267_YF] . Value? 0.506

###

# Tested system: Fes (UniProt P07332)
# Sequence (P07332 whole entry, looked up): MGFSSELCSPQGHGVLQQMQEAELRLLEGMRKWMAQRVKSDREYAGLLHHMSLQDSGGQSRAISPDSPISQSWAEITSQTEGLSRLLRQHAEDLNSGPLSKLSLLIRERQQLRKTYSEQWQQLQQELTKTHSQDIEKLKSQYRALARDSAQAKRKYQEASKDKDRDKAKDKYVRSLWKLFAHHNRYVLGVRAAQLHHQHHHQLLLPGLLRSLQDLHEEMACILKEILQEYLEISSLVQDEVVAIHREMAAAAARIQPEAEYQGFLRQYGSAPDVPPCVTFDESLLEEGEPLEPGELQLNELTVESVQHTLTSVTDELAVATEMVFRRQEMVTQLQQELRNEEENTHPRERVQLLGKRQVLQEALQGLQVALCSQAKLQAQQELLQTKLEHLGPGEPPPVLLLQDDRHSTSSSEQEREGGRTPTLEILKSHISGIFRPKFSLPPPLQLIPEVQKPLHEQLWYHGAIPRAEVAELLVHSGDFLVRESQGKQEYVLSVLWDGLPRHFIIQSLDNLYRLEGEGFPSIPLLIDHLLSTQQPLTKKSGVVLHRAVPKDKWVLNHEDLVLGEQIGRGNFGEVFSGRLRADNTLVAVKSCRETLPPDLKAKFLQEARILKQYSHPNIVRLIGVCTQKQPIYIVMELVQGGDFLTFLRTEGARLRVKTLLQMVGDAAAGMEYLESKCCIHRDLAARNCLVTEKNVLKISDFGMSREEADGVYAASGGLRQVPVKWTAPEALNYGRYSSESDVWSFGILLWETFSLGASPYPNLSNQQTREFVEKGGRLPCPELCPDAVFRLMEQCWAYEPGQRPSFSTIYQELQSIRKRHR
# Protocol text: phosphorylation enrichment, bacterial display (enrichment ratio); higher = better substrate or ligand; peptides without Tyr show the background
Attribute measured: phosphorylation enrichment
Form rule: numeric answer, no unit written next to it.

Consider the reported phosphorylation enrichment for these sequences:
>>> df
                     sequence_entry  measured
0  MSNFACVKREV [SCN1A_Y1694_Y1694C]     0.911
1    PESIPYRKFTT [NTRK1_Y701_L700P]     0.917
2    KGSEGYLAAIY [NF1_Y2503_T2507I]     0.912

# evaluate next
Tell me the measured phosphorylation enrichment of MKGDYYRYLAE [YWHAG_Y131] , please. 0.89

###

# Tested system: c-Src SH2;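 also: peptide library displayed on the E. coli surface as eCPX fusions, selected cells deep-sequenced, score is each peptide's frequency after selection divided by its frequency in the input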
# Protocol text: SH2 binding enrichment of the phosphorylated peptide, bacterial display (enrichment ratio); higher = better substrate or ligand; peptides without Tyr show the background
Attribute measured: SH2 binding enrichment

Consider the worked cases shown below.
                    sequence_entry      attribute_measured  measured
0         FGYPGYQSKHY [TIMP3_Y177]  SH2 binding enrichment     0.511
1  NVTRKYSRQIL [MAP3K2_Y463_T464S]  SH2 binding enrichment     0.508

Pending sequence:
// query SH2 binding enrichment value for entry GEPLSHTRFSL [TFRC_Y20_Y20H] 0.487
